# EXPERIMENTAL TARGET: Cytochrome P450 2C19 (Homo sapiens) (UniProt P33261)
# EXPERIMENT DESCRIPTION: NVS_ADME_hCYP2C19: NovaScreen (NVS) CYP450-related Enzyme Activity (ADME) Assay for human CYP2C19 (AID 2283113);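 further: potency for inhibition seen as loss of fluorescent signal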
Inconclusive results are not listed. Activity calls are given as the source filed them. How the source made its calls: active means hit-call score of the fitted dose curve at least 0.9, where 1 is the maximum; inconclusive means response in the unintended direction; inactive means score below 0.9.

{"SMILES TEXT": "Cc1ccc(N=Nc2c(O)ccc3ccccc23)c(C)c1", "EXPERIMENTAL TARGET": "Cytochrome P450 2C19 (Homo sapiens) (UniProt P33261)", "AC50": "565 nM (active)"}
{"SMILES TEXT": "CC(C)CCOCCC(C)C", "EXPERIMENTAL TARGET": "Cytochrome P450 2C19 (Homo sapiens) (UniProt P33261)", "AC50": "5000 nM (active)"}
{"SMILES TEXT": "CCCCCCCCCCCCCCCCCC[N+](C)(C)Cc1ccccc1", "EXPERIMENTAL TARGET": "Cytochrome P450 2C19 (Homo sapiens) (UniProt P33261)", "AC50": "1800 nM (active)"}
{"SMILES TEXT": "c1cc[nH]c1", "EXPERIMENTAL TARGET": "Cytochrome P450 2C19 (Homo sapiens) (UniProt P33261)", "AC50": "992 nM (active)"}

---

# Read-out: Paternally Expressed 10 (PEG10), PEG10 (gene 23089)
# EXPERIMENT DESCRIPTION: LTEA_HepaRG_PEG10: Life Technologies and Expression Analysis (LTEA) Assay for Paternally Expressed 10 (PEG10) using HepaRG (AID 2283520)
# TEST PARAMETERS: mRNA level, 48 h; actives raise or lower the signal
Calls of active or inactive are those of the source. The calls were made as follows: active = hit-call score of the fitted dose curve at least 0.9, where 1 is the maximum; inactive = score below 0.9.
Possible outcomes: active, inactive

{"MOLECULE": "CC(=O)Nc1ccc(O)cc1", "GROUP": "inactive"}
{"MOLECULE": "CCC(C)c1ccccc1O (configuration not stated)", "GROUP": "inactive"}
{"MOLECULE": "CCCCC=O", "GROUP": "inactive"}
{"MOLECULE": "N=C(N)c1ccc(OCCCCCOc2ccc(C(=N)N)cc2)cc1", "GROUP": "active"}
{"MOLECULE": "CCCCCCCCCCCCOS(=O)(=O)O", "GROUP": "inactive"}
{"MOLECULE": "O=C1NS(=O)(=O)c2ccccc21", "GROUP": "inactive"}
{"MOLECULE": "CN(Cc1cnc2nc(N)nc(N)c2n1)c1ccc(C(=O)N[C@@H](CCC(=O)O)C(=O)O)cc1", "GROUP": "inactive"}
{"MOLECULE": "Cc1[nH]nc2c1N=C(c1ccccc1Cl)c1cc([N+](=O)[O-])ccc1N2", "GROUP": "active"}
{"MOLECULE": "CCCCc1oc2ccccc2c1C(=O)c1cc(I)c(OCCN(CC)CC)c(I)c1", "GROUP": "active"}
{"MOLECULE": "CS(=O)(=O)c1ccc([C@@H](CC2CCCC2)C(=O)Nc2cnccn2)cc1Cl", "GROUP": "inactive"}
{"MOLECULE": "OCC(CO)(CBr)CBr", "GROUP": "inactive"}
{"MOLECULE": "CCCCC(CC)C(=O)O (configuration not stated)", "GROUP": "inactive"}
